Recorded values, source patent US20230013823A1.

- Test system: recombinant NL4-3 virus (Renilla luciferase in nef)
- Experiment Notes: HIV cell culture assay (antiviral activity, luciferase readout in MT-2 cells)
- Format: cell-based
- Experimental Conditions: Renilla, NL43
- Text: HIV cell culture assay—MT=2 cells, 293T cells and the proviral DNA clone of NL4-3 virus were obtained from the NIH AIDS Research and Reference Reagent Program. […] Luciferase was quantitated using the EnduRen Live Cell Substrate from Promega (Madison, Wis.). Antiviral activities of compounds toward the recombinant virus were quantified by measuring luciferase activity in MT=2 cells infected for 4-5 days with the recombinant virus in the presence of serial dilutions of the compound. […]
In this section, each of the compounds is paired with its reported pEC50.
Reminder that pEC50 is minus the log10 of a molar concentration.

Compound | pEC50
Cc1cc(-c2ccc3c(=O)n(-c4ccc(Cl)c5c(NS(C)(=O)=O)nn(C)c45)c([C@H](Cc4cc(F)cc(F)c4)NC(=O)Cn4nc(C(F)F)c5c4C(F)(F)[C@@H]4C[C@H]54)nc3c2)nn1CC(C)(F)F (atropisomer, axis not shown; (P)) | 10.02
Cn1nc(NS(C)(=O)=O)c2c(Cl)ccc(-n3c([C@H](Cc4cc(F)cc(F)c4)NC(=O)Cn4nc(C(F)F)c5c4C(F)(F)[C@@H]4C[C@H]54)nc4cc(-c5cnn(C6CC6)c5)ccc4c3=O)c21 (atropisomer, axis not shown; (P)) | 10.09
Cn1nc(NS(C)(=O)=O)c2c(Cl)ccc(-n3c([C@H](Cc4cc(F)cc(F)c4)NC(=O)Cn4nc(C(F)F)c5c4C(F)(F)[C@@H]4C[C@H]54)nc4cc(-c5ccn(CC(F)(F)C(F)F)n5)ccc4c3=O)c21 (atropisomer, axis not shown; (P)) | 10.15
Cn1nc(NS(C)(=O)=O)c2c(Cl)ccc(-n3c([C@H](Cc4cc(F)cc(F)c4)NC(=O)Cn4nc(C(F)F)c5c4C(F)(F)[C@H]4C[C@@H]54)nc4cc(-c5ccnn5C5CC5)ccc4c3=O)c21 (atropisomer, axis not shown; (P)) | 9.89
Cn1nccc1-c1ccc2c(=O)n(-c3ccc(Cl)c4c(NS(C)(=O)=O)nn(C)c34)c([C@H](Cc3cc(F)cc(F)c3)NC(=O)Cn3nc(C(F)F)c4c3C(F)(F)[C@@H]3C[C@H]43)nc2c1 (atropisomer, axis not shown; (P)) | 10.25
Cn1nc(NS(C)(=O)=O)c2c(Cl)ccc(-n3c([C@H](Cc4cc(F)cc(F)c4)NC(=O)Cn4nc(C(F)F)c5c4C(F)(F)[C@@H]4C[C@H]54)nc4cc(-c5ccnc(CF)n5)ccc4c3=O)c21 (atropisomer, axis not shown; (P)) | 10.25

Return pEC50 (reported value) for this compound: Cn1nc(NS(C)(=O)=O)c2c(Cl)ccc(-n3c([C@H](Cc4cc(F)cc(F)c4)NC(=O)Cn4nc(C(F)F)c5c4C(F)(F)[C@@H]4C[C@H]54)nc4cc(-c5ccn(CCCC(F)(F)F)n5)ccc4c3=O)c21 (atropisomer, axis not shown; (P))
10.00

----------
- System: recombinant NL4-3 virus (Renilla luciferase in nef)
- Experiment Notes: HIV cell culture assay (antiviral activity, luciferase readout in MT-2 cells)
- Assay type: cell-based
- Experimental Conditions: Renilla, NL43
- Excerpt: HIV cell culture assay—MT=2 cells, 293T cells and the proviral DNA clone of NL4-3 virus were obtained from the NIH AIDS Research and Reference Reagent Program. […] Luciferase was quantitated using the EnduRen Live Cell Substrate from Promega (Madison, Wis.). Antiviral activities of compounds toward the recombinant virus were quantified by measuring luciferase activity in MT=2 cells infected for 4-5 days with the recombinant virus in the presence of serial dilutions of the compound. […]
Cut-off 70 pM on EC50: below means 1 (yes), at or above means 0 (no).

Answered examples (3):
Molecule | Class Label
Cn1nc(NS(C)(=O)=O)c2c(Cl)ccc(-n3c([C@H](Cc4cc(F)cc(F)c4)NC(=O)Cn4nc(C(F)F)c5c4C(F)(F)[C@@H]4C[C@H]54)nc4cc(-c5ccc(F)c(C(F)(F)F)n5)ccc4c3=O)c21 (atropisomer, axis not shown; (P)) | 0 (no)
Cn1nc(NS(C)(=O)=O)c2c(Cl)ccc(-n3c([C@H](Cc4cc(F)cc(F)c4)NC(=O)Cn4nc(C(F)F)c5c4C(F)(F)[C@@H]4C[C@H]54)nc4cc(-c5ncc(F)cc5F)ccc4c3=O)c21 (atropisomer, axis not shown; (P)) | 0 (no)
CS(=O)(=O)Nc1nn(CCCF)c2c(-n3c([C@H](Cc4cc(F)cc(F)c4)NC(=O)Cn4nc(C(F)F)c5c4C(F)(F)[C@@H]4C[C@H]54)nc4cc(-c5ccnn5CC(F)(F)C(F)F)ccc4c3=O)ccc(Cl)c12 | 0 (no)

Item Cn1nc(NS(C)(=O)=O)c2c(Cl)ccc(-n3c([C@H](Cc4cc(F)cc(F)c4)NC(=O)Cn4ccc(C5CC5)n4)nc4cc(-c5ccn(CC(C)(F)F)n5)ccc4c3=O)c21 (atropisomer, axis not shown; (P)) : EC50 beneath 70 pM, strictly?
1 (yes)

Item COc1nc(C)cc(-c2ccc3c(=O)n(-c4ccc(Cl)c5c(NS(C)(=O)=O)nn(C)c45)c([C@H](Cc4cc(F)cc(F)c4)NC(=O)Cn4nc(C(F)F)c5c4C(F)(F)[C@@H]4C[C@H]54)nc3c2)n1 (atropisomer, axis not shown; (P)) : EC50 beneath 70 pM, strictly?
0 (no)

Item Cn1nc(NS(C)(=O)=O)c2c(Cl)ccc(-n3c([C@H](Cc4cc(F)cc(F)c4)NC(=O)Cn4nc(C(F)F)c5c4C(F)(F)[C@@H]4C[C@H]54)nc4cc(-c5ccnc(C(F)F)n5)ccc4c3=O)c21 (atropisomer, axis not shown; (P)) : EC50 beneath 70 pM, strictly?
1 (yes)

Item Cn1nc(NS(C)(=O)=O)c2c(Cl)ccc(-n3c([C@H](Cc4cc(F)cc(F)c4)NC(=O)Cn4nc(C(F)F)c5c4C(F)(F)[C@@H]4C[C@H]54)nc4cc(-n5nccc5C(F)(F)F)ccc4c3=O)c21 (atropisomer, axis not shown; (P)) : EC50 beneath 70 pM, strictly?
0 (no)

----------
- Experiment Notes: Compound cytotoxicity, XTT-based colorimetric assay
- Type: cell-based
- Experimental Conditions: human; uninfected MT2 cells, day 4, XTT
In this section, each of the molecules is paired with its reported CC50 at 4 days.

Molecule | CC50 at 4 days
Cn1nc(NS(C)(=O)=O)c2c(Cl)ccc(-n3c([C@H](Cc4cc(F)cc(F)c4)NC(=O)Cn4nc(C(F)F)c5c4C(F)(F)[C@@H]4C[C@H]54)nc4cc(-c5ccn(CCC(C)(F)F)n5)ccc4c3=O)c21 (atropisomer, axis not shown; (P)) [Example 52] | > 0.1 µM

Attention now shifts to the item below.
Return CC50 at 4 days (reported value) for this molecule: Cn1nc(NS(C)(=O)=O)c2c(Cl)ccc(-n3c([C@H](Cc4cc(F)cc(F)c4)NC(=O)Cn4nc(C(F)F)c5c4C(F)(F)[C@@H]4C[C@H]54)nc4cc(-c5cnn(C6CC6)c5)ccc4c3=O)c21 (atropisomer, axis not shown; (P)) [Example 40]
> 0.1 µM

----------
- Experiment Notes: Compound cytotoxicity, XTT-based colorimetric assay
- Assay type: cell-based
- Experimental Conditions: human; uninfected MT2 cells, day 4, XTT
Readout Kind: CC50 at 4 days

Consider the reported CC50 at 4 days for these compounds:
Compound | CC50 at 4 days
Cn1nc(NS(C)(=O)=O)c2c(Cl)ccc(-n3c([C@H](Cc4cc(F)cc(F)c4)NC(=O)Cn4ccc(C5CC5)n4)nc4cc(-c5ccn(CC(C)(F)F)n5)ccc4c3=O)c21 (atropisomer, axis not shown; (P)) | > 100 nM
Cn1nc(NS(C)(=O)=O)c2c(Cl)ccc(-n3c([C@H](Cc4cc(F)cc(F)c4)NC(=O)Cn4nc(C(F)F)c5c4C(F)(F)[C@@H]4C[C@H]54)nc4cc(-c5cc(C(C)(F)F)ccn5)ccc4c3=O)c21 (atropisomer, axis not shown; (P)) | > 100 nM
Cn1nc(NS(C)(=O)=O)c2c(Cl)ccc(-n3c([C@H](Cc4cc(F)cc(F)c4)NC(=O)Cn4nc(C(F)F)c5c4C(F)(F)[C@@H]4C[C@H]54)nc4cc(-c5ccnc(C(F)F)n5)ccc4c3=O)c21 (atropisomer, axis not shown; (P)) | > 100 nM

Return CC50 at 4 days (reported value) for this compound: Cn1nc(NS(C)(=O)=O)c2c(Cl)ccc(-n3c([C@H](Cc4cc(F)cc(F)c4)NC(=O)Cn4nc(C(F)F)c5c4C(F)(F)[C@@H]4C[C@H]54)nc4cc(-c5ccn(CC(C)(C)C)n5)ccc4c3=O)c21 (atropisomer, axis not shown; (P))
> 500 nM

Return CC50 at 4 days (reported value) for this compound: Cn1nc(NS(C)(=O)=O)c2c(Cl)ccc(-n3c([C@H](Cc4cc(F)cc(F)c4)NC(=O)Cn4nc(C(F)F)c5c4C(F)(F)[C@@H]4C[C@H]54)nc4cc(-c5ccc6scnc6c5)ccc4c3=O)c21 (atropisomer, axis not shown; (P))
> 100 nM

Return CC50 at 4 days (reported value) for this compound: Cn1nc(NS(C)(=O)=O)c2c(Cl)ccc(-n3c([C@H](Cc4cc(F)cc(F)c4)NC(=O)Cn4nc(C(F)F)c5c4C(F)(F)[C@@H]4C[C@H]54)nc4cc(-n5cc(C(F)(F)F)cn5)ccc4c3=O)c21 (atropisomer, axis not shown; (P))
> 100 nM

Return CC50 at 4 days (reported value) for this compound: Cn1nc(NS(C)(=O)=O)c2c(Cl)ccc(-n3c([C@H](Cc4cc(F)cc(F)c4)NC(=O)Cn4nc(C(F)F)c5c4C(F)(F)[C@@H]4C[C@H]54)nc4cc(-c5ccnc(S(C)(=O)=O)n5)ccc4c3=O)c21 (atropisomer, axis not shown; (P))
> 500 nM
